Form field: abundance fitness (one value per entry).
B1: Membrane-associated guanylate kinase, WW and PDZ domain-containing protein 2, residues 296 to 340; numbered along this chain, Q86UL8 (parent)
chain: EDNEEPDPLPDNWEMAYTEKGEVYFIDHNTKTTSWLDPRLAKKAK

Variants of: B1
assay-text: abundance fitness (aPCA) (normalised: wild type 0, dead -1); higher = more abundant; growth selection in yeast, the domain comes from the species named
setup-conditions: Homo sapiens
Write the value as a bare number.

Before answering, review these 2 worked examples.
Record P10A . Reported abundance fitness: -0.528

get_value(item= E4A , readout=abundance fitness) returns 0.016

Now look at this one.
S34W yielded abundance fitness of -0.784
